- Tested on: MS2 coat protein
- assay remarks: apparent KD of MS2 coat protein; designed switch direction (-1 OFF switch, 1 ON switch): 1; higher = weaker reporter binding
- test settings: input ligand: microRNA oligo, concentration not stated
property measured: apparent KD of MS2 coat protein

sequence text	apparent KD of MS2 coat protein
AACCUAGGCAGAGGAUAUCUGGACGCGCGCACCAGAGAAGGCUGCGAGCCCUGAAUAUACAUGAGGAUCACCCAUGUCCCGCAC [Eternabot solution 15] (Eterna round: R96, puzzle: Same State NG 1)	27.8 nM
AGAUCAUGACGAGGAUAUGGUACAUGAGGAUCACCCAUGUAUGUACCAUAACGCGUACGACGAAACCAGAAGGCGUCGUGGUCA [JL SSNG2 1.08] (Eterna round: R96, puzzle: Same State NG 2)	14.8 nM
CUGAAAUGUCAAGGAUAUCACGUCGAUUAGACGUGAGAAGGUGAUCUGCACAUGAGGAUCACCCAUGUGUUACAUGGGAAUCAG [Brourd's SSNG1/1-A2 mod 15] (Eterna round: R96, puzzle: Same State NG 1)	90.3 nM

Please find the next sequence below.
Consider UGCUUCAUGUAAGGAUAUGCAGCCGUUUCGGCUGCAGAAGGUACUAUAAUACAUGAGGAUCACCCAUGUCUCUCGCAUUGCGAG [salish99_SSng1_r04_301] (Eterna round: R96, puzzle: Same State NG 1) . Its measured apparent KD of MS2 coat protein is 111 nM
